# TARGET OF ASSAY: T1, human tumor necrosis factor-α (rHuTNF-alpha, Biosource) (human, UniProt P01375 77-233)
# T1 construct: Bought recombinant protein coated on ELISA plates; The TNFα of the Biacore assay is not described further; also called TNFα; human TNFα
# T1 sequence (P01375 77-233 limits assumed): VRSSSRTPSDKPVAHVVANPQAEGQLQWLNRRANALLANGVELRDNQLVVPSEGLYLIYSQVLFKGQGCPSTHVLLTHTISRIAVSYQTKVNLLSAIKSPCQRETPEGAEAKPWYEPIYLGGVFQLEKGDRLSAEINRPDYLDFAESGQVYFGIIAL
# TEST DESCRIPTION: solid-phase ELISA, Fab lysate on coated rHuTNF-alpha
EXPERIMENTAL ENDPOINT: binding result

SEQ ID NO 127 (Fab, V domains shown, Fab, E. coli lysate) VH: EVQLTESGGGLVQPGGSLRLSCAASQFIFSNHWMNWVRQAPGKGLEWIGEIRSKSSYGATSYAESVKGRFIISRDDNGNSLTLEMNSLKTEDTAEYYCARNYYGSTPDYWGQGTLVTVS VL: EIVLTQSPDFQSVTPKEKVTITCRASQFVGSSIHWYQQKPDQSPKLLIKYASESMSGVPSRFSGSGSGTDFTFTISSLEAEDAATYYCQQSHSWPFTFGPGTKVDIK = binds
SEQ ID NO 23 (Fab, V domains shown, Fab, E. coli lysate) VH: EVQLTESGGGLVQPGGSLRLSCAASGSIFSNHWMNWVRQAPGKGLEWIGEIRSKSIYGATHYAESVKGRFIISRDDNGTDLYLEMNSLKTEDTAEYYCARNYYGSTYDYWGQGTLVTVS VL: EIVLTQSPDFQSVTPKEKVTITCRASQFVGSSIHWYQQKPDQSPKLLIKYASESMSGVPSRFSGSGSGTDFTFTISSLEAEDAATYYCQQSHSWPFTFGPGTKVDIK = binds
